- Target Desc: T1, HLA-DR DRB1*1201 (human)
- T1 chain 1: not shown
- T1 chain 2: not shown
- Test Method Notes: radiolabeled-peptide inhibition, purified HLA-DR
- Condition Details: remark: other sources report otherwise
Reported Metric: pIC50
The read-out pIC50 is expressed as -log10 of concentration in moles per litre.

query: Which pIC50 is listed for CYGLGMEHLREVRAV [9019.0044] ?
result: 4.72
